# Test System: the molecule itself
# Assay Details: SEC
Observed Property: binding result

DISC1 598-854 C682S/C684S/C698S/C762S/C782S/C844S (domain or fragment) GNHFFTAKDLTEEIRSLTSEREGLEGLLSKLLVLSSRNVKKLGSVKEDYNRLRREVEHQETAYETSVKENTMKYMETLKNKLCSSKSPLLGKVWEADLEASRLLIQSLQLQEARGSLSVEDERQMDDLEGAAPPIPPRLHSEDKRKTPLKVLEEFKTHLIPSLHSAGGEQKEESYILSAELGEKSEDIGKKLLYLEDQLHTAIHSHDEDLIQSLRRELQMVKETLQAMILQLQPAKEAGEREAAASSMTAGVHEAQA    binds
DISC1 598-854 C680S/C684S/C698S/C762S/C782S/C844S (domain or fragment) GNHFFTAKDLTEEIRSLTSEREGLEGLLSKLLVLSSRNVKKLGSVKEDYNRLRREVEHQETAYETSVKENTMKYMETLKNKLSSCKSPLLGKVWEADLEASRLLIQSLQLQEARGSLSVEDERQMDDLEGAAPPIPPRLHSEDKRKTPLKVLEEFKTHLIPSLHSAGGEQKEESYILSAELGEKSEDIGKKLLYLEDQLHTAIHSHDEDLIQSLRRELQMVKETLQAMILQLQPAKEAGEREAAASSMTAGVHEAQA    binds
DISC1 598-854 C698S/C762S/C782S/C844S (domain or fragment) GNHFFTAKDLTEEIRSLTSEREGLEGLLSKLLVLSSRNVKKLGSVKEDYNRLRREVEHQETAYETSVKENTMKYMETLKNKLCSCKCPLLGKVWEADLEASRLLIQSLQLQEARGSLSVEDERQMDDLEGAAPPIPPRLHSEDKRKTPLKVLEEFKTHLIPSLHSAGGEQKEESYILSAELGEKSEDIGKKLLYLEDQLHTAIHSHDEDLIQSLRRELQMVKETLQAMILQLQPAKEAGEREAAASSMTAGVHEAQA    binds
